FYI, the data here is from ChEMBL document CHEMBL4689842.

For each of the compounds below, state its Population Tubulin-Different-Phenotype (%).
tested on: U2OS; experiment: Multiplex assay against U2OS; format: toxicity, cell-based; conditions: human, 48 h, 1 µM, compound concentration 1 uM, replicate 1

// query Fill in the blank: the reported Population Tubulin-Different-Phenotype (%) of `CN(C)CC#Cc1ccc(OCCCc2sc(N3CCc4cccc(C(=O)Nc5nc6ccccc6s5)c4C3)nc2C(=O)O)c(F)c1` is ____.
// result 10%

// query What value of Population Tubulin-Different-Phenotype (%) has been reported for the following compound? CN(C)C(=O)N[C@H]1CC[C@H](CCN2CCN(c3cccc(Cl)c3Cl)CC2)CC1.Cl [CARIPRAZINE HYDROCHLORIDE]
// result 7%

// query Suppose we examine the compound `COc1ncc(-c2ccc3nccc(-c4ccnnc4)c3c2)cc1NS(=O)(=O)c1ccc(F)cc1F` ; what Population Tubulin-Different-Phenotype (%) value has been reported?
// result 16%

// query Which value of Population Tubulin-Different-Phenotype (%) has been reported for `Cc1c(-c2ccc(O)cc2)n(Cc2ccc(OCCN3CCCCCC3)cc2)c2ccc(O)cc12` in the records?
// result 8%
